- Test Target: Fuc(a1-2)[Gal(a1-3)]Gal
- Assay Remarks: glycan array binding signal (z-score within array); higher = stronger binding
- Condition: glycan notation: IUPAC condensed, linker removed
Many of the other results were omitted from the sample, so the strongest signals are more common in it than they were.
Examples of binders with documented glycan array binding signal (z-score) follow.
Reported Metric: glycan array binding signal (z-score)

[[record]]
binder = "SrpA (Streptococcus sanguis) (protein) SSKSESTVNSQSASSETNRSSTNNGSTSSSSETARVRKRRATDTTPPTITVPSDIIAYRGEEFEFYFEITDDSGQVKNIELSTFGKPLGLNWLEYSEDNFNVPGNATSDNPLRVRVHGTVPLNEPIPADKNRAQFTRTIRAWDAAGNVSSNITFVIKYRAQTDKYNPADPTITYVDRLSSLSPSEKNAVEAAVRAANPQIPAAARITVSANGTVTITYPDSSTDTITANRVVKDLASSRSALT"
recorded_result = 0.762

[[record]]
binder = "LecB PA14 (Pseudomonas aeruginosa) (protein) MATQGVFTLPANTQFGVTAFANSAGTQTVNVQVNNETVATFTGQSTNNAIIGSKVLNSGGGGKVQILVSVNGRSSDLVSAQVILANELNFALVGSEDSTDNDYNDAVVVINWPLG"
recorded_result = -0.002

[[record]]
binder = "Clone646PsrP (Streptococcus pneumoniae) (protein) MDHHHHHHHHASENLYFQGAPAINASLNIAKSETKVYTGEGVDSVYRVPIYYKLKVTNDGSKLTFTYTVTYVNPKTNDLGNISSMRPGYSIYNSGTSTQTMLTLGSDLGKPSGVKNYITDKNGRQVLSYNTSTMTTQGSGYTWGNGAQMNGFFAKKGYGLTSSWTVPITGTDTSFTFTPYAARTDRIGINYFNGGGKVVESSTTSQSLSQSKSLSVSAS"
recorded_result = -0.314

[[record]]
binder = "Epa19 (Candida glabrata) (protein) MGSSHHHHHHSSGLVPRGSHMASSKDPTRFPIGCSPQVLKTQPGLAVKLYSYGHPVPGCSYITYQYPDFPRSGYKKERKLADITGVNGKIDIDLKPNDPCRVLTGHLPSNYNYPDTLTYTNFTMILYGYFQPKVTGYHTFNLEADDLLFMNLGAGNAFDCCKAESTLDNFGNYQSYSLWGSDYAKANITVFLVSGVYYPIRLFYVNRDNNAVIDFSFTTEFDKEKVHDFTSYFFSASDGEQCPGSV"
recorded_result = -0.947

[[record]]
binder = "TES70 (Toxocara canis), Q9XYV5 (protein) MISVVLVAIALQISGSYAGACNSINDCGLFETCVNNMCVPDNMGCPMPCQAGQVCVPPNCVAAPAPQPVTTTTAAATTTTSARGRCNANAQCGAFEVCVNGMCQPNNAGCNPPCAANQVCVAPNCVPAPIPPPAQSTTTAPATTRAPPSCPPSWSPFSGHCYYVAVGSFLFNQASDWCTQTNSRPVWFDQSNVGTFGAELYFINVLAASRGVQTYWLGLNRQFGQWVWTNGSPLIFSNWRGSEPDGCCGGNVTCALVNYANPFGQWDDAGCGNIWRNPQGFICKKPLA"
recorded_result = -0.052

[[record]]
binder = "NakA (Mycobacterium tuberculosum) (protein) SVVKPTKVTVFSPDGGADNPGEADLAIDGNPATSWKTDIYTDPVPFPSFKNGVGLMLQLPQATVVGTVAIDVASTGTKVEIRSASTPTPATLEDTAVLTSATALRPGHNTISVEAAAPTSNLLVWISTLGTTDGKSQADISEITIYAASD"
recorded_result = 0.037

[[record]]
binder = "PEB4 (Campylobacter jejuni), A1VYV6 (protein) MKKFSLVAAALIAGVALNVNAATVATVNGKSISDAEVSEFFAPMLRGQDFKTLPDNQKKALIQQYIMQDLILQDAKKQNLEKDPLYTKELDRAKDAILVNVYQEKILNTIKIDAAKVKAFYDQNKDKYVKPARVQAKHILVATEKEAKDIINELKGLKGKELDAKFSELAKEKSIDPGSKNQGGELGWFDQSTMVKPFTDAAFALKNGTITTTPVKTNFGYHVILKENSQAKGQIKFDEVKQGIENGLKFEEFKKVINQKGQDLLNSAKVEYK"
recorded_result = -0.517

[[record]]
binder = "CBM13 2a (Mycobacterium tuberculosum), P64849 (protein) DGPVQLKSRLGDVCLDAPSGSWFSPLVINPCNGTDFQRWNLTDDRQVESVAFPGECVNIGNALWARLQPCVNWISQHWTVQPDGLVKSDLDACLTVLGGPDPGTWVSTRWCDPNAPDQQWDSVPLEHHHHHH"
recorded_result = -0.26

[[record]]
binder = "Epa1 (Candida glabrata) (protein) MGSSHHHHHHSSGLVPRGSHMTSSNDISLASKDPTTFPLGCSPDITTPKKGLSMELYSYDFRKKGSYPCWDAAYLDPNYPRTGYKSHRLLAKVDGVTGNINFYYHATKGCTPQLGHLPASYNYPKPLTMTNFTMLLYGYFRPKVTGFHTFTISADDLLFVNFGAGNAFDCCRRDSSADHFGNYQAYAIWGSKTAKDELTVHLDAGVYYPIRLFYNNREYDGALSFTFKTESNENTVSDFSEYFFSLDDTEEGCPGLISYD"
recorded_result = -0.213

[[record]]
binder = "F17dG (Escherichia coli), Q47199 (protein) MTNFYKVFLAVFILVCCNISQAAVSFIGSTENDVGPSPGSYSRTHAMDNLPFVYNTGNNIGYQNANVWRISKGFCVGLDGKVDLPVVGSLDGQSIYGLTEEVGLLIWMGDTNYSRGTAMSGNSWENVFSGWCVGANTASTQGLSVRVTPVILKRNSSARYSVQKTSIGSIRMRPYNGSSAGSVQTTVNFSLNPFTLNDTVTSCRLLTPSAVNVSLAAISAGQLPSSGDEVVAGTTSLKLQCDAGVTVWATLTDATTPSNRSDILTLTGASTATGVGLRIYKNTDSTPLKFGPDSPVKGNENQWQLSTGTETSPSVRLYVKYVNTGEGINPGTVNGISTFTFSYQ"
recorded_result = -0.276

[[record]]
binder = "Epa7 (Candida glabrata), Q6DTM6_CANGB (protein) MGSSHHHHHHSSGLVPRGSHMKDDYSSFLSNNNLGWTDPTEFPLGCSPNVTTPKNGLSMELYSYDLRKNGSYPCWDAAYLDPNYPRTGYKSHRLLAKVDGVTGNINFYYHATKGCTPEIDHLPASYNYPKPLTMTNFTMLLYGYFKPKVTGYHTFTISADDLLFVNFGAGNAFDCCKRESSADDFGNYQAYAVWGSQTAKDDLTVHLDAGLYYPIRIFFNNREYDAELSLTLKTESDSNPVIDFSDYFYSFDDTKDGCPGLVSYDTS"
recorded_result = -0.213


Ref: the supplement of paper PMC8728848
